Target: RARγ (Homo sapiens)
Construct: expressed in transfected cells; line from Prof; Ballaguer, INSERM 439, Montpellier
Sequence (P13631 185-419 limits assumed): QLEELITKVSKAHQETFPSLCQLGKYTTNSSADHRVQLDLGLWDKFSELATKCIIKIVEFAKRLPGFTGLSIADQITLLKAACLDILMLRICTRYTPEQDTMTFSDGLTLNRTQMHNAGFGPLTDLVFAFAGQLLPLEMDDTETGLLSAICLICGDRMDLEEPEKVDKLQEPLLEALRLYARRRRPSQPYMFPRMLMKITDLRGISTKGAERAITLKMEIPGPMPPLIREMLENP
Test: Transactivation reporter test (luciferase) in HeLa ERE Luc-hRAR cells, RARγ
Type: cell-based
Details: normalized to basal control and maximum efficacy control CD0193 100 nM
property name: RARγ Efficacy (%)

Worked cases, RARγ Efficacy (%) given:
CCOc1ccc(-c2noc(-c3ccc(C(=O)O)cc3)n2)cc1C(C)(C)C : 96
CCCOc1ccc(-c2cnc(-c3ccc(C(=O)O)cc3)s2)cc1C1(C)CCCCC1 : 74
CCOCOc1ccc(-c2noc(-c3ccc(C(=O)O)cc3)n2)cc1C(C)(C)C : 88
CCOCOc1ccc(-c2noc(-c3ccc(C(=O)O)cc3)n2)cc1C1(C)CCCCC1 : 102

[I] CC(C)(C)c1cc(-c2noc(-c3ccc(C(=O)O)cc3)n2)ccc1O
[II] COc1ccc(-c2cnc(-c3ccc(C(=O)O)cc3)s2)cc1C(C)(C)C
Lab note: check whether I or II has the lower measured RARγ Efficacy (%). Your answer should be the label of the entry you select.
II
(II: 40%, I: 110%)

====

Molecular target: RARγ (Homo sapiens)
Construct: line from Prof; Ballaguer, INSERM 439, Montpellier
Test: Transactivation reporter test (luciferase) in HeLa ERE Luc-hRAR cells, RARγ
Settings: HeLa ERE Luc-hRAR cells, dose-response 10000 nM-0.04 nM, 18 hours incubation
pEC50: −log10 of the molar value.
property name: pEC50

Worked cases, pEC50 given:
COc1ccc(-c2cnc(-c3ccc(C(=O)O)cc3)s2)cc1C(C)(C)C : 7.18
CCOCOc1ccc(-c2noc(-c3ccc(C(=O)O)cc3)n2)cc1C1(C)CCCCC1 : 9.05
CCOCOc1ccc(-c2noc(-c3ccc(C(=O)O)cc3)n2)cc1C(C)(C)C : 8.00
CC1(C)CCC(C)(C)c2cc(-c3cnc(-c4ccc(C(=O)O)cc4)s3)ccc21 : 6.79

[I] CCOc1ccc(-c2noc(-c3ccc(C(=O)O)cc3)n2)cc1C(C)(C)C
[II] CCCOc1ccc(-c2cnc(-c3ccc(C(=O)O)cc3)s2)cc1C1(C)CCCCC1
[III] CC(C)(C)c1cc(-c2noc(-c3ccc(C(=O)O)cc3)n2)ccc1O
Order the records so the highest pEC50 appears first and the lowest last. Give the order by naming the labels one after another as requested.
III, I, II
(III: 8.62, I: 8.03, II: 5.99)

====

Molecular target: RARα (Homo sapiens)
Construct: expressed in transfected cells; line from Prof; Ballaguer, INSERM 439, Montpellier
Sequence (P10276 183-417 limits assumed): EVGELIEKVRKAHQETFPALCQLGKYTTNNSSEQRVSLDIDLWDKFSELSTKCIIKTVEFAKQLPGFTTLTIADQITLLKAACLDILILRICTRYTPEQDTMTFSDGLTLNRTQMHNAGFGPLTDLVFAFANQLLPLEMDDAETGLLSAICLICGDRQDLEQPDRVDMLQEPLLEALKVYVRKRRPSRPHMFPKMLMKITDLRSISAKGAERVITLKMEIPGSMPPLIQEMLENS
Test: Transactivation reporter test (luciferase) in HeLa ERE Luc-hRAR cells, RARα
Type: cell-based
Settings: normalized to basal control and maximum efficacy control CD0193 100 nM
Procedure: The activity of our molecules on the RAR is measured using a recombinant line expressing the ligand-biding domain (LBD) of RAR fused with the DNA binding domain (DBD) of the estrogen receptors. […] The expression of this reporter gene is quantified by luminescence after addition of its substrate, luciferin. […] The affinity (EC50 in nM) and efficacy (in %) are measured using the XLfit (IDBS) software according to a four-parameter nonlinear regression (model 205). […]
property name: RARα Efficacy (%)

Worked cases, RARα Efficacy given:
CC1(C)CCC(C)(C)c2cc(-c3cnc(-c4ccc(C(=O)O)cc4)s3)ccc21 : 64
CCOc1ccc(-c2noc(-c3ccc(C(=O)O)cc3)n2)cc1C(C)(C)C : 105
CCOCOc1ccc(-c2noc(-c3ccc(C(=O)O)cc3)n2)cc1C(C)(C)C : 104
CC(C)(C)c1cc(-c2noc(-c3ccc(C(=O)O)cc3)n2)ccc1O : 106
CCCOc1ccc(-c2cnc(-c3ccc(C(=O)O)cc3)s2)cc1C1(C)CCCCC1 : 68

[a] COc1ccc(-c2cnc(-c3ccc(C(=O)O)cc3)s2)cc1C(C)(C)C
[b] CCOCOc1ccc(-c2noc(-c3ccc(C(=O)O)cc3)n2)cc1C1(C)CCCCC1
Lab note: check whether a or b has the lower measured RARα Efficacy. Your answer should be the label of the entry you select.
a
